Recorded values, source patent US12673946B2.

Study target: human TRPV4 (Homo sapiens, UniProt Q9HBA0)
Construct: host or cells: tetracycline-inducible Flp-In T-REx 293 cells
Sequence (Q9HBA0 whole entry): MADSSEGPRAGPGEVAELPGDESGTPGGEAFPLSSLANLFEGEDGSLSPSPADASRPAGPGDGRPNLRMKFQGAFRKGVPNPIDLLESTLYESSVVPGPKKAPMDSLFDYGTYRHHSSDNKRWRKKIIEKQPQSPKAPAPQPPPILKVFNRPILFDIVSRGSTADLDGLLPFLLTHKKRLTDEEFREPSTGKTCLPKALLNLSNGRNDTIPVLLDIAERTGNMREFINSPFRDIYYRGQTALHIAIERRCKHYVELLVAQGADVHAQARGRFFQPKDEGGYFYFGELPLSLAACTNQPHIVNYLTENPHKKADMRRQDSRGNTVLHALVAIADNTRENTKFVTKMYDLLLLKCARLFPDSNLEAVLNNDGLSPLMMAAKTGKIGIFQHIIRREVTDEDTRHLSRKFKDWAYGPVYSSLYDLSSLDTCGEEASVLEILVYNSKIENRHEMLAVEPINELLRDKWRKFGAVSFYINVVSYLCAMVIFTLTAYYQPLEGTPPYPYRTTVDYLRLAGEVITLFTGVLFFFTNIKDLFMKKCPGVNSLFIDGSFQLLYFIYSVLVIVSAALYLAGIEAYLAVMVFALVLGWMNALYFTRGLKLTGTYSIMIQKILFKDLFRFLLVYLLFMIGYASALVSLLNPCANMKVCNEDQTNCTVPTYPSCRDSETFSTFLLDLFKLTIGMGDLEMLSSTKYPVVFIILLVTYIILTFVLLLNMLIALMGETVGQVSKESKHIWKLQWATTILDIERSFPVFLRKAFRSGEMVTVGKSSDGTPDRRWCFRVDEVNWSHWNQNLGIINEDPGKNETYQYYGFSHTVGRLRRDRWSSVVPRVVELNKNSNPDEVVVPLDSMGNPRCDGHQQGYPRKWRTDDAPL
Protocol description: Hypotonicity-induced Ca2+ influx (Fluo-4, FDSS)
Type: cell-based
Measurement context: Flp-In T-REx 293 cells stably expressing human TRPV4, compounds listed by potency bin (<10 nM Tables 96-1/96-2, <3 nM Table 97)
pIC50: −log10 of the molar value.
Measurement kind: pIC50

// solved cases for pIC50 follow
INSERT INTO measurements (compound, recorded_result) VALUES
  ('O=C([C@H](O)c1cccc(C(F)(F)F)c1)N1CCCc2nc(C3(c4cc(Br)cs4)CC3)[nH]c(=O)c2C1 [18-2]', '> 8.52'),
  ('CC(C(=O)N1CCCc2nc(C3(c4cccc(Cl)c4)CC3)[nH]c(=O)c2C1)c1cccc(C(F)(F)F)c1 (stereo not drawn) [17-88]', '> 8.00');

Now consider a different compound.
Lab note: measured pIC50 of O=C(N1CCCc2nc(C3(c4ccccc4)CC3)[nH]c(=O)c2C1)C(F)(F)c1cccc(C(F)(F)F)c1 [20-1] was > 8.52

###

Study target: human TRPV4 (Homo sapiens, UniProt Q9HBA0)
Construct: host or cells: tetracycline-inducible Flp-In T-REx 293 cells
Protocol description: Hypotonicity-induced Ca2+ influx (Fluo-4, FDSS)
Format: cell-based
Measurement context: Flp-In T-REx 293 cells expressing human TRPV4, examples listed under heading 'Human IC50<50 nM'
Procedure: Hypotonicity-Induced Ca^2+ Influx TRPV4 channel activation/opening results in an influx of Ca^2+ (Liedtke, W. et al., 2000 (NPL 1)). The resulting changes in intracellular calcium are monitored using a Ca^2+ sensitive fluorescent dye Fluo-4 (Invitrogen). Dye loaded cells are treated with the test compounds for 5 minutes prior to the addition of a hypotonic solution and the inhibition of the hypotonicity-induced activation is recorded. […]
IC50 for assorted molecules

Known results for molecules:
INSERT INTO results (molecule, study_target, measurement_kind, recorded_result) VALUES
  ('O=C(C(O)c1cc(Cl)cc(Cl)c1)N1CCc2nc(C3(c4ccccc4)CC3)[nH]c(=O)c2C1 (stereo not shown)', 'human TRPV4 (Homo sapiens, UniProt Q9HBA0)', 'IC50', '< 50 nM'),
  ('O=C([C@H](O)c1cccc(-c2ccc(OC(F)(F)F)cc2)c1)N1CCCc2nc(C3(c4ccccc4)CC3)[nH]c(=O)c2C1', 'human TRPV4 (Homo sapiens, UniProt Q9HBA0)', 'IC50', '< 50 nM'),
  ('O=C([C@H](O)c1cccc(Br)c1)N1CCCc2nc(C3(c4cccc(-c5csc6ccccc56)c4)CC3)[nH]c(=O)c2C1', 'human TRPV4 (Homo sapiens, UniProt Q9HBA0)', 'IC50', '< 50 nM'),
  ('O=C(Cc1cccc(S(F)(F)(F)(F)F)c1)N1CCCc2nc(C3(c4cccc(Cl)c4)CC3)[nH]c(=O)c2C1', 'human TRPV4 (Homo sapiens, UniProt Q9HBA0)', 'IC50', '< 50 nM'),
  ('O=C([C@H](O)c1cccc(Cl)c1)N1CCCc2nc(C3(c4cccc(-c5csc6ccccc56)c4)CC3)[nH]c(=O)c2C1', 'human TRPV4 (Homo sapiens, UniProt Q9HBA0)', 'IC50', '< 50 nM');

IC50 in this record for N#CC1(c2ccc(-c3cccc(C4(c5nc6c(c(=O)[nH]5)CN(C(=O)[C@H](O)c5cccc(Cl)c5)CCC6)CC4)c3)cc2)CC1 : < 50 nM

Recorded result, O=C([C@H](O)c1cccc(-c2ccc3cnccc3c2)c1)N1CCc2nc(C3(c4ccccc4)CC3)[nH]c(=O)c2C1 , IC50: < 50 nM
